- experimental-system: T1, human EGFR on cells (A431, NCI-H292, NCI-H322, NCI-H441) (human, UniProt P00533 25-1210)
- T1 construct: Endogenous EGFR of human tumor cell lines; also called HER-1; Erb-B1
- assay-summary: A431 cell competition with biotinylated EGF
readout-type: pIC50
Scale: negative log10 of molar concentration, which is what pIC50 denotes.

P54AR4-48 (designed binder, not shown: small tags and cut ends) LPAPKNLVVSEVTEDSLRLSWDDPRGFYESFLIQYQESEKVGEAINLTVPGSERSYDLTGLKPGTEYTVSIYGVHNVYKDTNMRGLPLSAEFTT; 8.01

Now for the binder whose pIC50 we want.
INPUT: I am curious: what pIC50 value has been reported for P53A1R5-17 (designed binder, not shown: small tags and cut ends) LPAPKNLVVSEVTEDSLRLSWADPHGFYDSFLIQYQESEKVGEAINLTVPGSERSYDLTGLKPGTEYTVSIYGVHNVYKDTNMRGLPLSAEFTT ?
OUTPUT: 8.01
